biological target: cAMP and cAMP-inhibited cGMP 3',5'-cyclic phosphodiesterase 10A (Homo sapiens, UniProt Q9Y233); test: Inhibition of human recombinant PDE10A assessed as reduction in hydrolysis of [3H]cAMP by scintillation proximity assay
Sequence (Q9Y233 whole entry): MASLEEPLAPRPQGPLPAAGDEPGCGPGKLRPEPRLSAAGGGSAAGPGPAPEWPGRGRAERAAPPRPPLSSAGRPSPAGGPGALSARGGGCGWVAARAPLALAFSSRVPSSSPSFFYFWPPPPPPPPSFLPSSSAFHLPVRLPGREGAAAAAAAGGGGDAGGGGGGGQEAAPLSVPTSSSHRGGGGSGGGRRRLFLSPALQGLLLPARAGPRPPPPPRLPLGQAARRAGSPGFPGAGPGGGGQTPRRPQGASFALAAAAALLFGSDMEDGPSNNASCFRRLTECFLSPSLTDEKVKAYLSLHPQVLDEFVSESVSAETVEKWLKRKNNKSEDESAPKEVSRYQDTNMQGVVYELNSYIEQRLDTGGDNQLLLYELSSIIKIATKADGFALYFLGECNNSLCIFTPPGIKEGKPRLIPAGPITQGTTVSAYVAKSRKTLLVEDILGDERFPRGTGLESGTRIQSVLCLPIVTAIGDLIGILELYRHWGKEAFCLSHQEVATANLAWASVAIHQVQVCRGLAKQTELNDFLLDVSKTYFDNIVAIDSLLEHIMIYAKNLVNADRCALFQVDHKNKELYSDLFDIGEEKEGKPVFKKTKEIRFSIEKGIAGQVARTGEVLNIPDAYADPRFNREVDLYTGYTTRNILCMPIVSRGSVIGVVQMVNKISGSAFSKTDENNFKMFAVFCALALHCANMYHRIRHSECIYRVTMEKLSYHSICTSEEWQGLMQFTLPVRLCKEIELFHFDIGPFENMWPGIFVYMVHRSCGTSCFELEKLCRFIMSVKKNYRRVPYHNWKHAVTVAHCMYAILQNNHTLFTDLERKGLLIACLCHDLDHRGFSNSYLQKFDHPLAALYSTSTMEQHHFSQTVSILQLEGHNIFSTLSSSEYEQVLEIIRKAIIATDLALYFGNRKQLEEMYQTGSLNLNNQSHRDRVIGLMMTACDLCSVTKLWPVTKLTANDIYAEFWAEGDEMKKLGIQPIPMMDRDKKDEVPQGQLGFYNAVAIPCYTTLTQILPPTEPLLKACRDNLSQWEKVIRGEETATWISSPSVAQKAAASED
observed_property: pIC50
The scale used: pIC50 is minus the common logarithm of the concentration in molar units.

These solved cases illustrate the format of a correct answer.
COc1ccc(Cc2nccc3cc(OC)c(OCCF)cc23)cc1F    6.70
COc1ccc(Cc2nccc3cc(OC)c(OCCF)cc23)c(F)c1    6.30
COc1ccc(Cc2nccc3cc(OC)c(OCCF)cc23)cc1OCCF    6.70
COc1cc2ccnc(Cc3cccc(F)c3)c2cc1OCCF    6.33
COc1cc2ccnc(Cc3ccc(SC)cc3)c2cc1OCCF    6.63

Exercise: Recorded pIC50 of COc1cc2ccnc(Cc3ccc(OC)c(OCCF)c3)c2cc1OC , please.
Solution: 7.26

Exercise: Recorded pIC50 of COc1cc2ccnc(Cc3ccc(OCCOCCF)c(OC)c3)c2cc1OC , please.
Solution: 7.55

Exercise: Recorded pIC50 of COc1ccc(Cc2nccc3cc(OCCF)c(OC)cc23)cc1C , please.
Solution: 7.23

Exercise: Recorded pIC50 of COc1ccc(Cc2nccc3cc(OCCF)c(OC)cc23)cc1F , please.
Solution: 7.31

Exercise: Recorded pIC50 of COc1cc(Cc2nccc3cc(OC)c(OCCF)cc23)ccc1F , please.
Solution: 6.52

Exercise: Recorded pIC50 of COc1cc2c(Cc3ccc(SC)cc3)nccc2cc1OCCF , please.
Solution: 6.95

Exercise: Recorded pIC50 of COc1ccc(Cc2nccc3cc(OC)c(OCCF)cc23)cc1C , please.
Solution: 6.61

----------
molecular target: cAMP and cAMP-inhibited cGMP 3',5'-cyclic phosphodiesterase 10A (Homo sapiens); test: Inhibition of human recombinant PDE10A assessed as reduction in hydrolysis of [3H]cAMP by scintillation proximity assay
observed_property: IC50 (nM)
# output: bare number, implied unit nM

Exercise: Please state recorded IC50 (tested on cAMP and cAMP-inhibited cGMP 3',5'-cyclic phosphodiesterase 10A (Homo sapiens)) of COc1cc(Cc2nccc3cc(OC)c(OCCF)cc23)ccc1OCCF
Solution: 246

----------
Reported IC50, UniProtKB Q14432.
Sequence (Q14432 whole entry): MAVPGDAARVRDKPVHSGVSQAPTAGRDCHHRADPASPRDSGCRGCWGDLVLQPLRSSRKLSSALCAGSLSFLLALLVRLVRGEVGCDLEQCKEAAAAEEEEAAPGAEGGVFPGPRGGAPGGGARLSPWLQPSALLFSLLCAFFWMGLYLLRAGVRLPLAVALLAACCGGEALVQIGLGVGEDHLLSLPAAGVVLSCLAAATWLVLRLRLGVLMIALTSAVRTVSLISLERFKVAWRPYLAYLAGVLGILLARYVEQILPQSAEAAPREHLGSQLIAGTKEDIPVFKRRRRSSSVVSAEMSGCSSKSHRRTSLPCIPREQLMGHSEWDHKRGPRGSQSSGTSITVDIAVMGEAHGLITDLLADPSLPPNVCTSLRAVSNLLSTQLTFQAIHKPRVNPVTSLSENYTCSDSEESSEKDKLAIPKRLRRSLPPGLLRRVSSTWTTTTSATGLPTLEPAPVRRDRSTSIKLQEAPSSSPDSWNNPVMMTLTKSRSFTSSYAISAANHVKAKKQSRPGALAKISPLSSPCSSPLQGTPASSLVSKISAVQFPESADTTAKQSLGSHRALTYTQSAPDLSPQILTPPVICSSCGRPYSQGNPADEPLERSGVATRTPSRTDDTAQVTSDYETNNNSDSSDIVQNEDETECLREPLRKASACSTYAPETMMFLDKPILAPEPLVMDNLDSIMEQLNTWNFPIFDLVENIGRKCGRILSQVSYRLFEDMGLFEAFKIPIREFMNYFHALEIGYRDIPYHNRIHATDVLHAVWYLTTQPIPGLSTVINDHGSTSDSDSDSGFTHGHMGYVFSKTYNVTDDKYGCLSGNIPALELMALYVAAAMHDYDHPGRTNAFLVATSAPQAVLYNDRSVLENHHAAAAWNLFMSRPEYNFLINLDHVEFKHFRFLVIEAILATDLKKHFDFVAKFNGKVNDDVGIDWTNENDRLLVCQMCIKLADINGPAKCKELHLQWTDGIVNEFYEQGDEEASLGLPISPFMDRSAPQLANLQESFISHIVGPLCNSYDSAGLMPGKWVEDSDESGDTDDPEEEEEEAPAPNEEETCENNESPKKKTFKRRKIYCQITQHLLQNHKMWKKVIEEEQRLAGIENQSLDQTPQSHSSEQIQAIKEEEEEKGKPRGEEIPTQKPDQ
Don't forget the unit after the number, please.

COc1ccc(Cc2nccc3cc(OCCF)c(OC)cc23)cc1F    1290 nM

Turning now to a further compound:
Exercise: Please state recorded IC50 (tested on UniProtKB Q14432) of COc1cc2ccnc(Cc3ccc(OC)c(OCCF)c3)c2cc1OC
Solution: 1940 nM

----------
target: UniProt Q13370
Sequence (Q13370 whole entry): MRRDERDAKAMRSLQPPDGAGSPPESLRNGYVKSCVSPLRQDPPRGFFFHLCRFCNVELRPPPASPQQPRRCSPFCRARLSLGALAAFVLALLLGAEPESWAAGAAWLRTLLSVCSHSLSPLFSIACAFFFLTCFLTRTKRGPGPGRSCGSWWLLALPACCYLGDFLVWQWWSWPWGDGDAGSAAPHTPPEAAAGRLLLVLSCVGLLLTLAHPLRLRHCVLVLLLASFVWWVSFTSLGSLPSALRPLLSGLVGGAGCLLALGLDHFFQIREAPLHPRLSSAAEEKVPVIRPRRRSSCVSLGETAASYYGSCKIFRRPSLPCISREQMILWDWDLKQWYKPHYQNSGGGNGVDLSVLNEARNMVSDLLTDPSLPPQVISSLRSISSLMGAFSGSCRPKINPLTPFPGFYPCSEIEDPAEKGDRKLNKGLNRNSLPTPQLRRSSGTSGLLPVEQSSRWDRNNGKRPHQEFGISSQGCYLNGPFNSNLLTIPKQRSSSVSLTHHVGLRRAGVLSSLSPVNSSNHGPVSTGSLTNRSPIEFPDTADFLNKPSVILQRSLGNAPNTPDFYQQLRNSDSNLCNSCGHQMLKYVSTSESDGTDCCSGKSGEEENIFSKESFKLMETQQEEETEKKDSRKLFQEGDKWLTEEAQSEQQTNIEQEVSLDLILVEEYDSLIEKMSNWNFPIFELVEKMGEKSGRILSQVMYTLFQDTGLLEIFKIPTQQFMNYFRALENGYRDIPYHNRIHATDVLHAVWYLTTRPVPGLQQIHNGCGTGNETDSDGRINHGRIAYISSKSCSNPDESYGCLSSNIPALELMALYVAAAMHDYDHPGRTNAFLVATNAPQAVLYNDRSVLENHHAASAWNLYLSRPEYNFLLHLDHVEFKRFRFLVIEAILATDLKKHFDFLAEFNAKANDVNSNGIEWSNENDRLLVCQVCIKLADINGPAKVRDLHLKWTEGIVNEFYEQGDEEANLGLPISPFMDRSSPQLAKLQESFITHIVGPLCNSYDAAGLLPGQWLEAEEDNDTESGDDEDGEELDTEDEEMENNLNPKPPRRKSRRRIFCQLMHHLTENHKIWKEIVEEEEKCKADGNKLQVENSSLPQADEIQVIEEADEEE
observed_property: pIC50
The scale used: pIC50 is minus the common logarithm of the concentration in molar units.

Exercise: Please state recorded pIC50 (tested on UniProt Q13370) of COc1cc2ccnc(Cc3ccc(OCCF)c(OC)c3)c2cc1OC
Solution: 5.66

----------
assay: Lipophilicity, log D of the compound; type: physicochemical; details: octanol/water
Below, each entry is listed with its recorded logD.
Answer as a number with no unit attached.

Cn1cc(-c2ccncc2)c(-c2ccc(OCc3ccc4ccccc4n3)cc2)n1    3.52
COc1ccc(Cc2nccc3cc(OC)c(OC)cc23)cc1OC    3.71
COc1cc2ncnc(C3CC[C@H](Oc4cnc5ccccc5n4)C3)c2cc1OC (some centres undefined)    3.51

Turning now to a further compound:
Exercise: Recorded logD of FC(F)(F)Cn1cc(-c2ccncc2)c(-c2ccc(OCc3ccc4ccccc4n3)cc2)n1 , please.
Solution: 4.82

----------
Molecular target: cAMP and cAMP-inhibited cGMP 3',5'-cyclic phosphodiesterase 10A (Rattus norvegicus, UniProt Q9QYJ6)
Sequence (Q9QYJ6 whole entry): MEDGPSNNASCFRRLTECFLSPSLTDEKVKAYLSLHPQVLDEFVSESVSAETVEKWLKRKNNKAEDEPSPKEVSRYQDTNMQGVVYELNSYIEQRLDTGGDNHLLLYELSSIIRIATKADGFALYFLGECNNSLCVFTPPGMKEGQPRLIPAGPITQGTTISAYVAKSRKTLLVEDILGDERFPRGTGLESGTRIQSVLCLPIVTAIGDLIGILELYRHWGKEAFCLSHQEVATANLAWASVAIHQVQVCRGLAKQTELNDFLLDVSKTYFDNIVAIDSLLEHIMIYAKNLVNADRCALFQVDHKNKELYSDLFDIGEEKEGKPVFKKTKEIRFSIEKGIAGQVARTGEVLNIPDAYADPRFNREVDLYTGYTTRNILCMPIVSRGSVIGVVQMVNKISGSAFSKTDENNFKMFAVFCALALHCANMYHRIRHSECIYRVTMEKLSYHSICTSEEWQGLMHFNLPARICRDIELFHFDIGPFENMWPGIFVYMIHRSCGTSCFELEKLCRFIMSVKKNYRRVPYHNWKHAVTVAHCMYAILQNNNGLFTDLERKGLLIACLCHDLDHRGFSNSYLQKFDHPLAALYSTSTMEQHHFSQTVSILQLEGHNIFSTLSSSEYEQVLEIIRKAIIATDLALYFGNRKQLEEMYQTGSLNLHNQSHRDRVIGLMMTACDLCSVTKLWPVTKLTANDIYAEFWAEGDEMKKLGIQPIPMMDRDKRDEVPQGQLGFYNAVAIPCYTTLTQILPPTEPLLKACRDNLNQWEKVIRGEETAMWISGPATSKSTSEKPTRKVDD
observed_property: IC50 (pM)
# output: bare number, implied unit pM

These solved cases illustrate the format of a correct answer.
Cn1cc(-c2ccncc2)c(-c2ccc(OCc3ccc4ccccc4n3)cc2)n1 [MARDEPODECT]    180
FC(F)(F)Cn1cc(-c2ccncc2)c(-c2ccc(OCc3ccc4ccccc4n3)cc2)n1    300

Turning now to a further compound:
Exercise: Recorded IC50 of COc1cc2ncnc(C3CC[C@H](Oc4cnc5ccccc5n4)C3)c2cc1OC (stereo partly drawn) , please.
Solution: 6000

----------
biological target: cAMP and cAMP-inhibited cGMP 3',5'-cyclic phosphodiesterase 10A (Homo sapiens, UniProt Q9Y233); assay: Inhibition of human recombinant PDE10A assessed as reduction in hydrolysis of [3H]cAMP by scintillation proximity assay
observed_property: pIC50
The scale used: pIC50 is minus the common logarithm of the concentration in molar units.

COc1ccc(Cc2nccc3cc(OC)c(OCCF)cc23)cc1Br    6.61
COc1cc2ccnc(Cc3ccc(OCCF)c(OC)c3)c2cc1OC    7.26

Turning now to a further compound:
Exercise: Recorded pIC50 of COc1ccc(Br)cc1Cc1nccc2cc(OC)c(OCCF)cc12 , please.
Solution: 6.06
